Ref: PubChem BioAssay AID2060488

Quick reference for viability, T/C among some compounds
- Tested on: 966289-007-R4-J1-PDC complex spheroid viability
- assay-comment: Anticancer human tumor 966289-007-R4-J1-PDC patient-derived pancreatic adenocarcinoma cell line growth inhibition [GQUAD]
- condition-details: second compound 0.0316 µM; first compound 0.0316 µM; stronger effect = lower value

compound	viability, T/C
CC(C)(O)C1CCC(Nc2ccc3ncc(-c4cccc(C(F)(F)F)c4)n3n2)CC1 (stereo not given) + CN(C)c1ccc(Nc2c3ccc(NC(=O)CCN4CCCC4)cc3nc3cc(NC(=O)CCN4CCCC4)ccc23)cc1	108%
C=CCn1c(=O)c2cnc(Nc3ccc(N4CCN(C)CC4)cc3)nc2n1-c1cccc(C(C)(C)O)n1 + CN(C)c1ccc(Nc2c3ccc(NC(=O)CCN4CCCC4)cc3nc3cc(NC(=O)CCN4CCCC4)ccc23)cc1	104%
O=C(NO)c1cnc(N2CCN(S(=O)(=O)c3ccc4ccccc4c3)CC2)nc1 + Cc1cnc(CNC(=O)c2c(=O)c3ccc(N4CCCN(C)CC4)nc3n3c2sc2ccccc23)cn1	96.4%

Name the recorded viability, T/C of the compound listed here: COc1cc(C2c3cc4c(cc3C(OC3OC5COC(C)OC5C(O)C3O)C3COC(=O)C23)OCO4)cc(OC)c1O (stereo not given) + Cc1[nH]c2ccc(F)cc2c1-c1nc2c3cccnc3c3ncccc3c2[nH]1 107%

Name the recorded viability, T/C of the compound listed here: COc1cc(C2c3cc4c(cc3C(OC3OC5COC(C)OC5C(O)C3O)C3COC(=O)C23)OCO4)cc(OC)c1O (stereo not given) + Cc1cnc(CNC(=O)c2c(=O)c3ccc(N4CCCN(C)CC4)nc3n3c2sc2ccccc23)cn1 88%

----------
- System: 966289-007-R4-J1-PDC complex spheroid viability
- assay-comment: Anticancer human tumor 966289-007-R4-J1-PDC cell line growth inhibition [GQUAD]; active means viability on the fitted dose curve at most 10% of control; inactive means the rest;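 also: spheroids exposed to the agents for seven days before readout; percent viability relative to DMSO vehicle control wells taken as 100%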
- condition-details: second compound 10 µM; first compound 0.316 µM
API: response.call in T (active), F (inactive)

As a guide, the following entries are already answered.
molecule	class-name
C=CCn1c(=O)c2cnc(Nc3ccc(N4CCN(C)CC4)cc3)nc2n1-c1cccc(C(C)(C)O)n1 + Cc1cnc(CNC(=O)c2c(=O)c3ccc(N4CCCN(C)CC4)nc3n3c2sc2ccccc23)cn1	T
Nc1ccn(C2OC(CO)C(O)C2(F)F)c(=O)n1 (stereo not drawn) + Cc1[nH]c2ccc(F)cc2c1-c1nc2c3cccnc3c3ncccc3c2[nH]1	T

Now look at this entry.
Which outcome was assigned to CC(C)n1c(=O)n(C)c2cnc3cc(F)c(-c4ccc(OCCCN5CCCCC5)nc4)cc3c21 + Cc1[nH]c2ccc(F)cc2c1-c1nc2c3cccnc3c3ncccc3c2[nH]1 in this test? F

----------
- System: 966289-007-R4-J1-PDC complex spheroid viability
- assay-comment: Anticancer human tumor 966289-007-R4-J1-PDC cell line growth inhibition [GQUAD]; active means viability on the fitted dose curve at most 10% of control; inactive means the rest;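 also: spheroids exposed to the agents for seven days before readout; percent viability relative to DMSO vehicle control wells taken as 100%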
- condition-details: second compound 3.16 µM; first compound 0.316 µM
API: response.call in yes (1) (active), no (0) (inactive)

compound	class-name
Cc1[nH]c2ccccc2c1CCNCc1ccc(/C=C/C(=O)NO)cc1 + CN(C)c1ccc(Nc2c3ccc(NC(=O)CCN4CCCC4)cc3nc3cc(NC(=O)CCN4CCCC4)ccc23)cc1	yes (1)
Cc1cccc(N(C)C(=O)C2C(O)CCN2c2nc(C)cc(C(F)(F)F)c2C#N)c1 (stereo unspecified) + Cc1[nH]c2ccc(F)cc2c1-c1nc2c3cccnc3c3ncccc3c2[nH]1	no (0)
Nc1ccn(C2OC(CO)C(O)C2(F)F)c(=O)n1 (stereo unspecified) + CN(C)c1ccc(Nc2c3ccc(NC(=O)CCN4CCCC4)cc3nc3cc(NC(=O)CCN4CCCC4)ccc23)cc1	yes (1)
C#Cc1c(F)ccc2cc(O)cc(-c3ncc4c(N5CC6CCC(C5)N6)nc(OCC56CCCN5CC(F)C6)nc4c3F)c12 (stereo unspecified) + Cc1cnc(CNC(=O)c2c(=O)c3ccc(N4CCCN(C)CC4)nc3n3c2sc2ccccc23)cn1	yes (1)
CC1COCCN1c1cc(-c2ccnn2C)c2ccnc(-c3ccn[nH]3)c2n1 (stereo unspecified) + Cc1[nH]c2ccc(F)cc2c1-c1nc2c3cccnc3c3ncccc3c2[nH]1	yes (1)

Now look at this entry.
Which outcome was assigned to Cc1[nH]c2ccccc2c1CCNCc1ccc(/C=C/C(=O)NO)cc1 + Cc1cnc(CNC(=O)c2c(=O)c3ccc(N4CCCN(C)CC4)nc3n3c2sc2ccccc23)cn1 in this test? yes (1)

----------
Quick reference for viability, T/C among some compounds
- System: 966289-007-R4-J1-PDC complex spheroid viability
- assay-comment: Anticancer human tumor 966289-007-R4-J1-PDC cell line growth inhibition [GQUAD];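 also: spheroids exposed to the agents for seven days before readout; percent viability relative to DMSO vehicle control wells taken as 100%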
- condition-details: second compound 1 µM; first compound 0.316 µM; stronger effect = lower value
Number in %, nothing else.

compound	tested-on	test-readout	experimental-result
CC(=O)O[C@H]1C(=O)[C@@]2(C)[C@H]([C@H](OC(=O)c3ccccc3)[C@]3(O)C[C@H](OC(=O)[C@H](O)[C@@H](NC(=O)c4ccccc4)c4ccccc4)C(C)=C1C3(C)C)[C@]1(OC(C)=O)CO[C@@H]1C[C@@H]2O + Cc1cnc(CNC(=O)c2c(=O)c3ccc(N4CCCN(C)CC4)nc3n3c2sc2ccccc23)cn1	966289-007-R4-J1-PDC complex spheroid viability	viability, T/C	4.08
CCCS(=O)(=O)Nc1ccc(F)c(C(=O)c2c[nH]c3ncc(-c4ccc(Cl)cc4)cc23)c1F + CN(C)c1ccc(Nc2c3ccc(NC(=O)CCN4CCCC4)cc3nc3cc(NC(=O)CCN4CCCC4)ccc23)cc1	966289-007-R4-J1-PDC complex spheroid viability	viability, T/C	109

Name the recorded viability, T/C of the compound listed here: COc1cccc2c1C(=O)c1c(O)c3c(c(O)c1C2=O)CC(O)(C(=O)CO)CC3OC1CC(N)C(O)C(C)O1 (stereo not drawn) + Cc1cnc(CNC(=O)c2c(=O)c3ccc(N4CCCN(C)CC4)nc3n3c2sc2ccccc23)cn1 1.44

----------
- System: 966289-007-R4-J1-PDC complex spheroid viability
- assay-comment: Anticancer human tumor 966289-007-R4-J1-PDC cell line growth inhibition [GQUAD];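 also: spheroids exposed to the agents for seven days before readout; percent viability relative to DMSO vehicle control wells taken as 100%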
- condition-details: second compound 0.1 µM; first compound 10 µM; stronger effect = lower value
- Excerpt: DNA G-quadruplex Stabilizer Agents in Combinations in Complex Spheroids A high-throughput screen of multi-cell type tumor spheroids was designed to identify active combinations of DNA G-quadruplex stabilizer agents and targeted small molecules. […] Compounds. […] If the clinical Cmax for an agent had not been determined, the highest concentration tested was 10 microM. […]
test-readout: viability, T/C (%)
Number in %, nothing else.

Completed entries (count: 10):
compound	tested-on	test-readout	measurement-units	experimental-result
O=C(NO)c1cnc(N2CCN(S(=O)(=O)c3ccc4ccccc4c3)CC2)nc1 + Cc1[nH]c2ccc(F)cc2c1-c1nc2c3cccnc3c3ncccc3c2[nH]1	966289-007-R4-J1-PDC complex spheroid viability	viability, T/C	%	0.14
CC(C)(O)C1CCC(Nc2ccc3ncc(-c4cccc(C(F)(F)F)c4)n3n2)CC1 (stereo unspecified) + Cc1[nH]c2ccc(F)cc2c1-c1nc2c3cccnc3c3ncccc3c2[nH]1	966289-007-R4-J1-PDC complex spheroid viability	viability, T/C	%	51.3
O=c1[nH]cc(F)c(=O)[nH]1 + Cc1[nH]c2ccc(F)cc2c1-c1nc2c3cccnc3c3ncccc3c2[nH]1	966289-007-R4-J1-PDC complex spheroid viability	viability, T/C	%	6.8
C=CC(=O)N1CCN(c2nc(=O)n(-c3c(C)ccnc3C(C)C)c3nc(-c4c(O)cccc4F)c(F)cc23)C(C)C1 (stereo unspecified) + CN(C)c1ccc(Nc2c3ccc(NC(=O)CCN4CCCC4)cc3nc3cc(NC(=O)CCN4CCCC4)ccc23)cc1	966289-007-R4-J1-PDC complex spheroid viability	viability, T/C	%	113
O=C(NO)c1cnc(N2CCN(S(=O)(=O)c3ccc4ccccc4c3)CC2)nc1 + CN(C)c1ccc(Nc2c3ccc(NC(=O)CCN4CCCC4)cc3nc3cc(NC(=O)CCN4CCCC4)ccc23)cc1	966289-007-R4-J1-PDC complex spheroid viability	viability, T/C	%	0.24
Nc1ccn(C2OC(CO)C(O)C2(F)F)c(=O)n1 (stereo unspecified) + Cc1[nH]c2ccc(F)cc2c1-c1nc2c3cccnc3c3ncccc3c2[nH]1	966289-007-R4-J1-PDC complex spheroid viability	viability, T/C	%	0.76
O=C(NO)c1cnc(N2CCN(S(=O)(=O)c3ccc4ccccc4c3)CC2)nc1 + Cc1cnc(CNC(=O)c2c(=O)c3ccc(N4CCCN(C)CC4)nc3n3c2sc2ccccc23)cn1	966289-007-R4-J1-PDC complex spheroid viability	viability, T/C	%	0.31
COc1ccc([C@@H](O)c2cc(-c3ncnc4cc(N5CCOCC5)ccc34)c(F)cc2Cl)nn1 + Cc1[nH]c2ccc(F)cc2c1-c1nc2c3cccnc3c3ncccc3c2[nH]1	966289-007-R4-J1-PDC complex spheroid viability	viability, T/C	%	87.8
COc1ncnc(C2CC2)c1-c1ncc2cnn(Cc3ccc(-c4nc(C(F)(F)F)cn4C(C)C)cc3)c2n1 + Cc1cnc(CNC(=O)c2c(=O)c3ccc(N4CCCN(C)CC4)nc3n3c2sc2ccccc23)cn1	966289-007-R4-J1-PDC complex spheroid viability	viability, T/C	%	29.3
CC(C)n1c(=O)n(C)c2cnc3cc(F)c(-c4ccc(OCCCN5CCCCC5)nc4)cc3c21 + Cc1[nH]c2ccc(F)cc2c1-c1nc2c3cccnc3c3ncccc3c2[nH]1	966289-007-R4-J1-PDC complex spheroid viability	viability, T/C	%	89.1

Attention now shifts to the item below.
Name the recorded viability, T/C of the compound listed here: C=CCn1c(=O)c2cnc(Nc3ccc(N4CCN(C)CC4)cc3)nc2n1-c1cccc(C(C)(C)O)n1 + Cc1cnc(CNC(=O)c2c(=O)c3ccc(N4CCCN(C)CC4)nc3n3c2sc2ccccc23)cn1 1.35
